Measured pEC50, listed per entry.
Target: GCase (Homo sapiens, UniProt P04062)
Construct: endogenous in cells; host or cells: HeLa cells
Test: activation of GCase in a live cell PFB assay in HELA cells
Type: cell-based
Details: EC50 given as range classes
pEC50: −log10 of the molar value.

COc1ccc(C(=O)N2CC3(CCN(c4cnc5cnn(CC(F)F)c5n4)C3)C2)cc1 | 4.30 to 5.00
Cc1ncc(N2CC3(CCN(c4ncc5cnn(CC(F)F)c5n4)C3)C2)c(C(F)(F)F)n1 | > 5.00
Cc1nc(N2CCC3(CC2)CCN(c2cnc4cnn(CC(F)F)c4n2)C3)cc(C(F)(F)F)n1 | 4.30 to 5.00
CCN1C(=O)N(c2ccnc(C(F)(F)F)c2)C(=O)C12CCN(c1cnc3c(C)nn(C4COC4)c3n1)CC2 | > 5.00
Cc1nc(N2CCC3(CC2)CCN(c2cnc4c(C)nn(CC(F)F)c4n2)C3)cc(C(F)(F)F)n1 | 4.30 to 5.00

Reported pEC50 ( O=C1CCC2(CCN(c3cnc4cnn(CC(F)F)c4n3)C2)CN1c1cc(C(F)(F)F)ccn1 (stereo not shown) ) = > 5.00

pEC50 measured on FC(F)Cn1ncc2ncc(N3CCC4(CC3)CC(Nc3cc(C(F)(F)F)ccn3)C4)nc21 = 4.30 to 5.00

Kindly note the recorded pEC50 for Cn1c(=O)n(C2COC2)c2nc(N3CCC4(CN(c5ccnc(C(F)(F)F)c5)C4)C3)cnc21 , which is > 5.00

Reported pEC50 for Cc1nc(N2CCC3(CC2)CN(c2ncc4cnn(CC(F)F)c4n2)C3)cc(C(F)(F)F)n1 was 4.30 to 5.00

Lab note: measured pEC50 of Cc1nc(N2CCC3(CCN(c4ncc5c(C)nn(CC(F)(F)F)c5n4)CC3)C2)cc(C(F)(F)F)n1 was 4.30 to 5.00

Record FC(F)Cn1ncc2ncc(N3CCC4(CN(c5ccc(C(F)(F)F)cn5)C4)C3)nc21 . Reported pEC50: 4.30 to 5.00

The reported pEC50 of the compound FC(F)Cn1ncc2ncc(NC3CCC4(CC3)CN(c3ccc(C(F)(F)F)cn3)C4)nc21 was 4.30 to 5.00

Kindly note the recorded pEC50 for FC(F)Cn1ncc2ncc(N[C@H]3CC[C@@]4(CCN(c5cc(C(F)(F)F)ccn5)C4)CC3)nc21 , which is 4.30 to 5.00

get_value(item= Cc1nc(N2CC3(CCN(c4ccc5c(C)nn(CC(F)F)c5n4)CC3)CC2=O)cc(C(F)(F)F)n1 , readout=pEC50) returns > 5.00

# compound FC(F)Cn1ncc2ncc(N3CCC4(CC3)CC(Nc3ccc(C(F)(F)F)nc3)C4)nc21 ; its pEC50 = 4.30 to 5.00

Recorded pEC50 (compound Cc1nn(C2COC2)c2nc(N3CCC4(CN(c5ccnc(C(F)(F)F)c5)C4)C3)n(C)c(=O)c12 ): > 5.00

###

Property: pEC50; scope: individual compounds
Target: GCase (Homo sapiens)
Construct: endogenous in cells; host or cells: HeLa cells
Assay: activation of GCase in a live cell PFB assay in HELA cells
Assay type: cell-based
Conditions: activation of GCase, EC50 ranges
pEC50: −log10 of the molar value.

Cc1nc(N2CC3(CCN(c4nc5c(cnn5CC(F)F)c(=O)n4CC4CC4)C3)C2)cc(C(F)(F)F)n1 [Cmpd 1113] | 4.30 to 5.00
O=C1N(c2ncc(C(F)(F)F)cc2Cl)CCC12CCN(c1cnc3cnn(CC(F)F)c3n1)CC2 [Cmpd 776] | 4.30 to 5.00
Cc1cc(N2CC3(CCN(c4ncc5c(C)nn(C6COC6)c5n4)C3)C2)nc(C)n1 [Cmpd 644] | 4.30 to 5.00
FC(F)Cn1ncc2ncc(N3CCC4(CCN(c5cc(C(F)(F)F)ccn5)CC4)C3)nc21 [Compound 16] | 4.30 to 5.00
FC(F)Cn1ncc2ncc(N3CC4(CCCN(c5ncccc5C(F)(F)F)C4)C3)nc21 [Compound 39] | 4.00 to 4.30

Consider FC(F)Cn1ncc2ncc(N3CCCC4(CC(Oc5ccc(C(F)(F)F)cn5)C4)C3)nc21 (centres unmarked) [Compound 28] . Its measured pEC50 is 4.30 to 5.00

Field pEC50 (entry O=C1N(c2cc(C(F)(F)F)ccn2)C(=O)C2(CCN(c3cnc4cnn(CC(F)F)c4n3)CC2)N1Cc1cc(F)ccc1F [Cmpd 718] ) reads > 5.00

The measured pEC50 associated with COc1ncc(N2CCC3(CCN(c4cnc5cnn(CC(F)F)c5n4)CC3)C2)cn1 [Cmpd 762] reads > 5.00

###

Molecular target: GCase (Homo sapiens, UniProt P04062)
Construct: endogenous in cells; host or cells: HeLa cells
Assay: activation of GCase in a live cell PFB assay in HELA cells
Type: cell-based
Settings: EC50 given as range classes
measurement_name: EC50

// known answers, use as guide
Cc1nc(N2CC3(CCN(c4ccc5c(C)nn(CC(F)F)c5n4)C3)C2)cc(C(F)(F)F)n1 | 10 to 50 µM
Cc1nc(N2CC3(CCN(c4cnc5cnn(CC(F)F)c5n4)C3)C2)cc(C(F)(F)F)n1 | < 10 µM
O=S(=O)(c1ccccc1F)N1CC2(CCN(c3cnc4cnn(CC(F)F)c4n3)C2)C1 | < 10 µM
Cc1nc(N2CCC3(CC2)CCN(c2cnc4cnn(CC(F)(F)F)c4n2)C3)cc(C(F)(F)F)n1 | 10 to 50 µM
FC(F)Cn1ncc2ncc(N3CCC4(CC3)CC(Nc3ccc(C(F)(F)F)cn3)C4)nc21 | 10 to 50 µM

Form field EC50, entry O=C1CC2(CN1c1ccc(C(F)(F)F)cn1)C1CC2CN(c2cnc3cnn(CC(F)F)c3n2)C1 (stereo not shown) : 10 to 50 µM

###

Target: GCase (Homo sapiens, UniProt P04062)
Construct: endogenous in cells; host or cells: HeLa cells
Sequence (P04062 40-536): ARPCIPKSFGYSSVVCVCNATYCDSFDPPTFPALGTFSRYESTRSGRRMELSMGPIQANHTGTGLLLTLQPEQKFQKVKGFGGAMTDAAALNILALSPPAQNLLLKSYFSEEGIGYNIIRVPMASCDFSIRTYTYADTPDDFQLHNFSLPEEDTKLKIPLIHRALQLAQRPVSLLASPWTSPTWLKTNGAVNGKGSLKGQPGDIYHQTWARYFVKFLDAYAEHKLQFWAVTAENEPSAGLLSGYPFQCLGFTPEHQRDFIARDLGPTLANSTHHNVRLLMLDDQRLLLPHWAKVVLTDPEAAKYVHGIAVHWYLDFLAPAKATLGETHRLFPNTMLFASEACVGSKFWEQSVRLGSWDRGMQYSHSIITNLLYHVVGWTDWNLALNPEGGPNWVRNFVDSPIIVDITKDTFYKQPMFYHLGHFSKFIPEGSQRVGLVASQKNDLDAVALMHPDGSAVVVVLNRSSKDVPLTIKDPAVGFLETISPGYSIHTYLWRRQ
Test: activation of GCase in a live cell PFB assay in HELA cells
Format: cell-based
Conditions: activation of GCase, EC50 ranges
measurement_name: EC50

Data point: FC(F)Cn1ncc2ncc(N3CCC4(CC3)CN(c3cccc(C(F)(F)F)n3)C4)nc21 ; EC50 = < 10 µM

According to the records, this compound O=C1N(c2cnc3cnn(CC(F)F)c3n2)CCCC12CN(c1ccc(C(F)(F)F)cn1)C2 displays EC50 of > 100 µM

###

Catalogue of pEC50 readings, one per entry.
Molecular target: GCase (Homo sapiens, UniProt P04062)
Construct: endogenous in cells; host or cells: HeLa cells
Sequence (P04062 40-536): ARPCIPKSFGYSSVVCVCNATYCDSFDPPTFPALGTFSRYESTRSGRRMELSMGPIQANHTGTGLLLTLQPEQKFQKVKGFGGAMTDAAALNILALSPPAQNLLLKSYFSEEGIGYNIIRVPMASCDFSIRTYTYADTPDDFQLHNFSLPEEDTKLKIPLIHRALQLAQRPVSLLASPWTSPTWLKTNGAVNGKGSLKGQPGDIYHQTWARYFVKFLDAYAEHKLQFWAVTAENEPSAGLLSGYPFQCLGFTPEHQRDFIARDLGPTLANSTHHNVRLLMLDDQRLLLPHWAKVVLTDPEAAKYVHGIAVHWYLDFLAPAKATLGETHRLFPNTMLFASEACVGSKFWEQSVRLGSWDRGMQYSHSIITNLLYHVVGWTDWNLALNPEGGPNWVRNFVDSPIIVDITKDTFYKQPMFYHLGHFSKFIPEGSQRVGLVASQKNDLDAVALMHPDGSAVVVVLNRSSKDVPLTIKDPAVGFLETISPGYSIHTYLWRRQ
Experiment: activation of GCase in a live cell PFB assay in HELA cells
Assay type: cell-based
Settings: activation of GCase, EC50 ranges
pEC50: −log10 of the molar value.

Example entries begin here.
Cc1nc(N2CC3(CCN(c4ncc5cnn(C6COC6)c5n4)CC3)C2)cc(C(F)(F)F)n1 | 4.30 to 5.00
Cc1nc(N2CC3(CCN(c4cnc5cnn(CC(F)F)c5n4)CC3)C2)cc(C(F)(F)F)n1 | > 5.00
Cc1cc(N2CC3(CCN(c4cnc5cnn([C@@H]6CCOC6)c5n4)C3)C2)nc(C(F)(F)F)n1 | > 5.00
CC1CN(c2cnc3cnn(CC(F)F)c3n2)CC[C@@]12CCN(c1cccc(C(F)(F)F)n1)C2=O (stereo partly shown) | 4.30 to 5.00
Cc1nn(CC(F)F)c2nc(N3CCC4(CC3)CC(=O)N(c3cncc(C(F)(F)F)n3)C4)cnc12 | 4.30 to 5.00

Entry CCN1C(=O)N(c2ccc(C(F)(F)F)nc2)C(=O)C12CCN(c1ncc3c(C)nn(C4COC4)c3n1)CC2 ; pEC50 = 4.30 to 5.00

pEC50 recorded for this molecule, Cc1cc(N2CC3(CCN(c4cnc5c(C)nn(C6COC6)c5n4)C3)C2)nc(C(F)(F)F)n1 , is > 5.00

The measured pEC50 associated with Cc1nc(N2CC[C@@]3(CCN(c4ncc5c(C)nn(C6COC6)c5n4)C3)C2)cc(C(F)(F)F)n1 reads 4.30 to 5.00

For O=C1N(Cc2cnc(C(F)(F)F)s2)CCC12CCN(c1cnc3cnn(CC(F)F)c3n1)CC2 the molecule record lists pEC50 as > 5.00

Sample O=C1N(c2ccnc(C(F)(F)F)c2)CCC12CN(c1cnc3cnn(CC(F)F)c3n1)C2 ; pEC50 observed: > 5.00

The molecule Cc1nc(N2CC3(CCN(c4cc5c(cn4)cnn5CC(F)F)CC3)CC2=O)cc(C(F)(F)F)n1 showed pEC50 equal to > 5.00

Recorded pEC50 (molecule Cc1nc(N2CC3(CCN(c4cncc(-c5ccn(CC(F)(F)F)n5)n4)C3)C2)cc(C(F)(F)F)n1 ): < 4.00

Value of pEC50 reported for the molecule Cc1nc(N2CCC3(CCN(c4cnc5cnn(C6COC6)c5n4)C3)C2)cc(C(F)(F)F)n1 (stereo not shown) is > 5.00

For this molecule ( Cc1nc(N2CCC3(CCN(c4cnc5cnn(CC(F)(F)F)c5n4)CC3)C2)cc(C(F)(F)F)n1 ), measured pEC50 is 4.30 to 5.00

pEC50 recorded for this molecule, FC(F)(F)c1cc(N2CC3(CCN(c4cnc5cnn(C6CCOCC6)c5n4)C3)C2)ccn1 , is < 4.00

The measured pEC50 associated with CC1CN(c2cnc3cnn(CC(F)F)c3n2)CCC12CCN(c1cc(C(F)(F)F)ccn1)C2 (stereo not shown) reads > 5.00
